- study-system: T1, human CCR7 expressed on CHO-K1 cells (human CCR7 gene-introduced stable expression cell) (human, UniProt P32248 25-378)
- T1 construct: also called hCCR7; hCCR7 gene-introduced cell
- T1 sequence: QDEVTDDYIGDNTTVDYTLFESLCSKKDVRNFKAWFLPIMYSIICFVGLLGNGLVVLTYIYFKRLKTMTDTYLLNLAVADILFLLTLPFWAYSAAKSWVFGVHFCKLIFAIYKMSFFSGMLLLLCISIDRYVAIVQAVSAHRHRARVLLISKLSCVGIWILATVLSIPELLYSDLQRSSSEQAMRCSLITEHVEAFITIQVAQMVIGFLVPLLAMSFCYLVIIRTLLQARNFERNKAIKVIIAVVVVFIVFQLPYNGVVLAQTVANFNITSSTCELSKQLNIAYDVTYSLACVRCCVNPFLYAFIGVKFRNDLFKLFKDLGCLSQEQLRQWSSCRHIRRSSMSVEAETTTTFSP
- experiment-summary: flow cytometry, 10 µg/mL antibody on hCCR7 gene-introduced CHO-K1 cells, PE anti-mouse IgG
Consider the following binders; for each one, report its Percentage of specifically binding cells (M2/(M1 + M2)).
Give the number; % is assumed, so skip it.

Percentage of specifically binding cells (M2/(M1 + M2)) reading for anti-human CCR7 monoclonal antibody R7-09 (hybridoma FERM BP-11372) (antibody, IgG2a, V domains shown, Mouse monoclonal antibody from hybridoma) VH: EVQLQQSGTELVRPGASVKLSCTASGFNIKDDYIHWVKQRPDQGLEWIGRIDPANGNTKYAPKFQDKATITSDTSSNTAYLQLSSLTSEDTAVYYCARSFYDYDLFASWGQGTLVSVSA VL: DAVVTQESALTTSPGGTVILTCRSSTGAVTTSNFANWVQEKPDHLFSGLISGNNKRAPGVPARFSGSLIGDKAALSITGAQTEDEAMYFCALWYNNHWVFGGGTK : 100

Percentage of specifically binding cells (M2/(M1 + M2)) reading for anti-human CCR7 monoclonal antibody R7-02 (hybridoma FERM BP-11404) (antibody, IgG2a, V domains shown, Mouse monoclonal antibody from hybridoma) VH: QVQLQQSGAELERPGASVKLSCTASGFNIRDDYVHWVKQRPEQGLEWIGRIDPANGNTKYGPKFQAKATLTADTSSNTAYLQLGSLTSEDTAVYYCTRSFYDYDLFVPWGQGTLVTVSA VL: DAVVTQESALTTSPGETVTLTCRSSTGAVTKNNFANWVQEKPDHLFTGLIGGNNIRAPGVPARFSGSLIGDKAALSITGAQTEDEAIYFCALWYSNHWVFGGGTK : 100

Percentage of specifically binding cells (M2/(M1 + M2)) reading for anti-human CCR7 monoclonal antibody R7-25 (hybridoma FERM BP-11375) (antibody, IgG1, V domains shown, Mouse monoclonal antibody from hybridoma) VH: EVMVVESGPGLMKPSQSLSLTCAVTGYSITSGYDWHWIRHFPGNILEWMGYINYSGSTNYKPSLKSRISITLDTSKNHFFLKLSSVTTEDTATYYCARGSYYSYEFAYWGQGTLVTVSA VL: DIVMSQSPSSLAVSVGEKVTMSCKSSQRLLYYSTQKNYLAWYQQKPGQSPKLLIFWASTRESGVPNRFTGSGSGTDFTLTINSVKAEDLAVYYCQQYYTYPTFGGGTK : 100

Percentage of specifically binding cells (M2/(M1 + M2)) reading for anti-human CCR7 monoclonal antibody R7-05 (hybridoma FERM BP-11371) (antibody, IgG2b, V domains shown, Mouse monoclonal antibody from hybridoma) VH: EVQLQQSGAELVRPGASVKLSCTASGFNIKDDYIHWVKQRPEQGLDWIGRVDPADGNTKYAPNFHDKATVTADTSSNTAYLQLSSLTSEDTAVYYCARSFYDYDLFASWGQGTLVTVSA VL: DAVVTQESALTTSPGETVTLTCRSSTGAVTTSNFANWVQEKPDHLFTGLISSNNKRAPGVPARFSGSLIGDKAALSITGAQTEDEAIYFCALWYSNHWVFGGGTK : 100

Percentage of specifically binding cells (M2/(M1 + M2)) reading for anti-human CCR7 monoclonal antibody R7-11 (hybridoma FERM BP-11373) (antibody, IgG1, V domains shown, Mouse monoclonal antibody from hybridoma) VH: EVQLQQSGPDLVMPGASVRISCKASGYSFTAYYMHWVKQSHGLSLEWIGRVNPNNGGTSYNRKFKDKAILTVDRSSSTAFMELRSLTSEDSAVYYCARSESDHFYAMDSWGQGNSVSVSS VL: DIVMTQTPLSLPVSLGDQVFISCRSSQSLVHSNGNTYLCWFLQKPGQSPKLLIYRVSNRFSGVPDRFSGSGSGTDFTLKISRVEAEDLGVYFCFQGSHVPHTFGSGTK : 100
